Source listed as patent US20260242478A1.

# subjectOfTest: T1, PSMA Fab (006 PSMA Fab) (biotinylated (site not stated))
# T1 construct: also called Anti-PSMA Fab
# assayDetails: clonal phage ELISA on biotinylated PSMA Fab captured on neutravidin plates, anti-M13 HRP detection;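 also: crude clonal phage supernatants tested, before phage were added, wells were pretreated with PSMA antigen in blocking buffer or with blocking buffer only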
Recorded Phage binding ELISA signal, Anti-PSMA Fab values for a group of binders are listed next.
measure: Phage binding ELISA signal, Anti-PSMA Fab

[[record]]
binder = "VAIACTPMWMCTGF [Phage-3661 (peptide-180 library clone)]"
readoutnumber = 1.49

[[record]]
binder = "ESRFCVPAWMCAAV [Phage-3665 (peptide-180 library clone)]"
readoutnumber = 1.49

[[record]]
binder = "ISIKCEPQWMCDGL [Phage-3671 (peptide-180 library clone)]"
readoutnumber = 1.48

[[record]]
binder = "PELRCHPPWMCTGF [Phage-3670 (peptide-180 library clone)]"
readoutnumber = 1.49

[[record]]
binder = "LQVLCVPDWMCAGF [Phage-3668 (peptide-180 library clone)]"
readoutnumber = 1.49

[[record]]
binder = "AAKYCEPSWMCYGF [Phage-3672 (peptide-180 library clone)]"
readoutnumber = 1.48

